// reported inhibition at 50 µM for each item listed
- TARGET_UNDER_TEST: CYP2D6 (Homo sapiens, UniProt P10635)
- Sequence (P10635 whole entry): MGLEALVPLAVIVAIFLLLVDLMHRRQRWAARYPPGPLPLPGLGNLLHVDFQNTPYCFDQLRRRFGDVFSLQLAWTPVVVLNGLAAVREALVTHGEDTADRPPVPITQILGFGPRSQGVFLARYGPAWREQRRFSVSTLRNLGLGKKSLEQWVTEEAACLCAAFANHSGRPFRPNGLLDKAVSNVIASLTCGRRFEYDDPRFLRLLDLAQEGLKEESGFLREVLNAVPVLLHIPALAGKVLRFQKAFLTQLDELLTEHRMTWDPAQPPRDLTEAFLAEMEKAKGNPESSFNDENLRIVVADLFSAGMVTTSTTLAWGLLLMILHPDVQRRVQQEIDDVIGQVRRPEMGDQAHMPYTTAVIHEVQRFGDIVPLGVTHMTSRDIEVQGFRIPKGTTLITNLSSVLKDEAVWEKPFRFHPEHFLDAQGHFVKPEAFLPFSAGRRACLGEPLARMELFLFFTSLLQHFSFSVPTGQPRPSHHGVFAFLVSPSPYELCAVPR
- METHOD_NOTES: Time dependent inhibition of human recombinant CYP2D6 coexpressed in Escherichia coli at 50 uM using bufuralol as probe
- Type: ADME

• O=C(NCc1ccncc1)c1nc(CS(=O)(=O)c2ccccc2)no1 = < 11%

Challenge: Give inhibition at 50 µM (CYP2D6 (Homo sapiens, UniProt P10635)) of the following compound: Clc1cc(-c2nc(CSc3nnc(-c4ccncc4)n3C3CC3)no2)ccn1
Response given: < 11%

Challenge: Continue with c1ccc(CN2CCN(Cc3nc(-c4ccccc4)no3)CC2)cc1
Response given: < 9%
